Values were extracted from ChEMBL document CHEMBL1129824.

# tested on: Chymotrypsinogen A (Bos taurus)
# run description: Inhibitory activity using serine protease, alpha-chymotrypsin with Succ-Ala-Ala-Pro-Phe-AMC as substrate. The percent inhibition at 10 uM concentration, was reported.
value kind: inhibition (%)
Numbers only, in %.

1. CC(C)C[C@@H](CCS(=O)(=O)c1ccc2ccccc2c1)C(=O)N[C@H](C=O)CC(C)C ... 12
2. CC(C)C[C@H](CCS(=O)(=O)c1ccc2ccccc2c1)C(=O)N[C@H](C=O)CC(C)C ... 11
3. CC(C)C[C@H](CCSc1ccc2ccccc2c1)C(=O)N[C@H](C=O)CC(C)C ... 11

Query: Complete the entry with inhibition for CC(C)C[C@H](CC[S+]([O-])c1ccc2ccccc2c1)C(=O)N[C@H](C=O)CC(C)C (some centres undefined)
Reply: 18
